target: KDM5A (Homo sapiens); construct: Full length KDM5A enzyme was expressed and purified inhouse; made in house; experiment: KDM5 enzyme assay, KDM5A HTRF (Example 463); format: biochemical; conditions: compounds of Examples 1-432; read-out: Example 463 Assay KDM5A HTRF IC50
List of IC50 values.
measured-attribute: IC50 (nM)

| chemical-structure | unit-text | measured |
| --- | --- | --- |
| Cc1cc(Cl)cc(-c2[nH]c3c(C#N)cnn3c(=O)c2C(C)C)c1 | nM | 25 |
| CC(C)c1c(-c2ccn(C3CCCC3)n2)[nH]c2c(C#N)cnn2c1=O | nM | 14 |
| CC(C)c1c(-c2cnn(CC3CCCCC3)c2)[nH]c2c(C#N)cnn2c1=O | nM | 13 |
| CC(C)c1c(-c2cccc(-c3ccccc3)c2)n(C)c2c(C#N)cnn2c1=O | nM | 43 |
| CC(C)c1c(-c2cnn(-c3ccc(F)cc3)c2)[nH]c2c(C#N)cnn2c1=O | nM | 24 |
| CCOc1cccc(-c2[nH]c3c(C#N)cnn3c(=O)c2C(C)C)c1 | nM | 34 |
| CC(C)c1c(-c2cnn(C3CCOCC3)c2)[nH]c2c(C#N)cnn2c1=O | nM | 33 |
| CCC(=O)N1CCC=C(c2[nH]c3c(C#N)cnn3c(=O)c2C(C)C)C1 | nM | 39 |

---

target: KDM5A (Homo sapiens); construct: Full length KDM5A enzyme was expressed and purified inhouse; made in house; assay: KDM5 enzyme assay, KDM5A HTRF (Example 463); assay type: biochemical; conditions: compounds of Examples 1-432; read-out: Example 463 Assay KDM5A HTRF IC50
pIC50: −log10 of the molar value.

| molecule | pIC50 |
| --- | --- |
| CC(C)c1c(-c2cnn(C(C)(C)CO)c2)[nH]c2c(C#N)cnn2c1=O [Example 98] | 7.43 |
| CC(C)c1c(-c2cccc(C#N)c2)[nH]c2c(C#N)cnn2c1=O [Example 79] | 7.89 |
| Cc1c(C(C)C)c(=O)n2ncc(C#N)c2n1C [Example 196] | 7.33 |
| CCc1c(-c2nnc(C)o2)[nH]c2c(C#N)cnn2c1=O [Example 29] | 7.80 |
| CC(C)c1c(Nc2ccccc2)[nH]c2c(C#N)cnn2c1=O [Example 47] | 7.62 |
| CC(C)c1c(N2CCCCC2)[nH]c2c(C#N)cnn2c1=O [Example 48] | 7.08 |

---

target: KDM5A (Homo sapiens, UniProt P29375); construct: Full length KDM5A enzyme was expressed and purified inhouse; made in house; experiment: KDM5 enzyme assay, KDM5A HTRF (Example 463); type: biochemical; conditions: compounds of Examples 1-432; read-out: Example 463 Assay KDM5A HTRF IC50
Sequence (P29375 whole entry): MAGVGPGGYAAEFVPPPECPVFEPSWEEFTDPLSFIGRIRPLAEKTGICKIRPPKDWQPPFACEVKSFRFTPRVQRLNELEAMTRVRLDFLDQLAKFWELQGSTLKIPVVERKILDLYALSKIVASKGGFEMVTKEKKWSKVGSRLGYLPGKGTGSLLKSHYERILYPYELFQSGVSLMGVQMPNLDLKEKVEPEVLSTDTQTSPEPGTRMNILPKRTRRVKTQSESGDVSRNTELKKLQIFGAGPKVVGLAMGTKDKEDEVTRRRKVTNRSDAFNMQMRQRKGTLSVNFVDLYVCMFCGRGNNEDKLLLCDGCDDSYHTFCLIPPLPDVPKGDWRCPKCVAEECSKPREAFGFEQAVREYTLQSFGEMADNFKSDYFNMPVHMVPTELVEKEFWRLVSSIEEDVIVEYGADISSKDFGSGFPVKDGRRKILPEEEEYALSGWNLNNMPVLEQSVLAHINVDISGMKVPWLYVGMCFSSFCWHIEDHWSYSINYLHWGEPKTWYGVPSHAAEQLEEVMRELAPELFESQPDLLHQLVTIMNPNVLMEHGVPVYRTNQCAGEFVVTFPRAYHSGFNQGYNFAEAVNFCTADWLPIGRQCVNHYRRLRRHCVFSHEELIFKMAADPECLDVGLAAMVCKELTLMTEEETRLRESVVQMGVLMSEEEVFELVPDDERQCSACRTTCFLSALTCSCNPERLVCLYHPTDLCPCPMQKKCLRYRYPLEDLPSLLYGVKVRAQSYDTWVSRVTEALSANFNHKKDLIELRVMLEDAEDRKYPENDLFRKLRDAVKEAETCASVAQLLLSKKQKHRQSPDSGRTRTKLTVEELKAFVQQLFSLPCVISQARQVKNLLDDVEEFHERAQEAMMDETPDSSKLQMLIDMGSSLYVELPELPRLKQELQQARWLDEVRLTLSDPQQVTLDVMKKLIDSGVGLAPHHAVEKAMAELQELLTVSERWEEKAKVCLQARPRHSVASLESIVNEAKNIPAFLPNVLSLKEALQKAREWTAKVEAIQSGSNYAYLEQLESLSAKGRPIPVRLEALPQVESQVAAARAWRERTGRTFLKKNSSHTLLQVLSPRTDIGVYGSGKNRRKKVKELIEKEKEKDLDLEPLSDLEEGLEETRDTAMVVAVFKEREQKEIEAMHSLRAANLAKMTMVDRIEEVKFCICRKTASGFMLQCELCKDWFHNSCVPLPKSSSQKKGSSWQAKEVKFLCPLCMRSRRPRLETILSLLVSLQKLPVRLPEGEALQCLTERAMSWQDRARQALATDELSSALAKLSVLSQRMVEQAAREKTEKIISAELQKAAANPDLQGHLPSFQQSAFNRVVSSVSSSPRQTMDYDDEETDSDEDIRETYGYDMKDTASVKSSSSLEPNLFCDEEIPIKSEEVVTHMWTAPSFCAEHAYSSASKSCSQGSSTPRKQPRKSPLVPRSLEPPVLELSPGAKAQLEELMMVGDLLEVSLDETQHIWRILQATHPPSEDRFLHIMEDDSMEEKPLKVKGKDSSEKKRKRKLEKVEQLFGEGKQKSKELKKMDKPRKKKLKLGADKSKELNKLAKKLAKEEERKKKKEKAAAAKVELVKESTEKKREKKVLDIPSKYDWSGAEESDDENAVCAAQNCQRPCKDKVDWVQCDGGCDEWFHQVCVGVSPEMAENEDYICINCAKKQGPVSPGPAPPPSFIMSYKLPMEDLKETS
measured-attribute: log10 IC50 (log10 of the value in µM)

| chemical-structure | tested-target | measured |
| --- | --- | --- |
| C=C(C)c1[nH]c2c(C#N)cnn2c(=O)c1C(C)C | KDM5A (Homo sapiens, UniProt P29375) | -2.00 |
| N#Cc1cnn2c(=O)cc(-c3cccc(Br)c3)[nH]c12 | KDM5A (Homo sapiens, UniProt P29375) | -0.39 |
| CCc1c(-c2ccoc2)n(C)c2c(C#N)cnn2c1=O | KDM5A (Homo sapiens, UniProt P29375) | -1.19 |
| CC(C)c1c(-c2cnn(C(C)(C)C)c2)[nH]c2c(C#N)cnn2c1=O | KDM5A (Homo sapiens, UniProt P29375) | -1.85 |
| CC(C)c1c(-c2ccc3[nH]ncc3c2)[nH]c2c(C#N)cnn2c1=O | KDM5A (Homo sapiens, UniProt P29375) | -1.92 |
| CC(C)c1c(-c2cc(C3CC3)n(C3CCCC3)n2)[nH]c2c(C#N)cnn2c1=O | KDM5A (Homo sapiens, UniProt P29375) | -1.34 |

Taken from patent US10035801B2.
